Assay: protein stability index of a GFP-peptide fusion (yeast GPS) (PSI 1-4); higher = more stable; sorted into four equal gates, so the index is relative within each strain
Settings: san1∆
# key: entry, value: protein stability index

{"columns": ["sequence.string", "protein stability index"],
 "data": [
  ["VELIESKINELSYYVEE [SMC4]", 3.28],
  ["ELGAINLHALSMSLQSK [SWI1]", 1.99],
  ["ELSDSDRQIINEKMQLL [SIR4]", 2.56],
  ["EDGMIIDVNLNFARQLL [RRP40]", 3.26],
  ["PLEKITDAYLDQYLWYE [PRP8]", 3.03],
  ["VFLLLQAYFSRLELPVD [BRR2]", 1.26],
  ["RNHKHALHGTAKALAAA [RPL29]", 2.52],
  ["EPFNAGIKYHATPPLKR [SMC1]", 2.79],
  ["DGFNKTFHDELNLKFKE [YML103C/NUP188]", 2.69],
  ["NSEKYYDEDPYGFEDES [RPB2]", 3.27],
  ["VTQQKRSLDENRLEIKY [SMC1]", 2.12],
  ["RSYDLTRHQNTIHAKRK [RPN4]", 2.52],
  ["DAIIPFAAIPEQGIELE [FAS2]", 3.42],
  ["QSDSAKVEIKKVNSRDD [PRP28]", 2.73],
  ["TKEVESNIITKSLVQYI [DIS3]", 2.65],
  ["NYILNFKQSNSETFLQF [CDC53]", 1.77],
  ["KKEATKPAFSFGINTNT [YLR335W/NUP2]", 3.26],
  ["TKTPGPGGQAALRALAR [RPS14A]", 2.39],
  ["DNVIVINHKINNKITQL [SIR3]", 2.08],
  ["HNSVKRYQIMLPEQLKS [SNM1]", 1.44],
  ["RNPDIYTREFVEAIRRS [NUT2]", 2.84],
  ["PSSLNSDKIPYVAPTKK [SRB4]", 2.15],
  ["VRPFGVSTLIAGFDPRD [PRE6]", 1.75],
  ["KTRKTYCKGKTCRKHTQ [RPL42A]", 2.75],
  ["CRSCPYEFPIEGIEIYD [RPC11]", 1.85],
  ["KDTTGPKAISNFLIKLS [YCS4]", 1.34],
  ["EWFEQNNSEQDQEIVIQ [ISW2]", 2.45],
  ["ERYFDCCTKFFTMMTSE [PCI8]", 2.35],
  ["QSRLFINELVLENFKSY [SMC4]", 1.94],
  ["RYVYAHFPINVNIVEKD [RPL9A]", 2.06],
  ["AAAVSGNNASDEPSRKK [SSN3]", 2.78]
]}

* * *

Here the recorded protein stability index is given for each entry.
Experiment: protein stability index of a GFP-peptide fusion (yeast GPS) (PSI 1-4); higher = more stable; sorted into four equal gates, so the index is relative within each strain
Conditions: ubr1∆

{"columns": ["sequence.string", "protein stability index"],
 "data": [
  ["RNPDIYTREFVEAIRRS [NUT2]", 3.02],
  ["EPTYRLVRYGLAEKVEK [RPS24A]", 3.12],
  ["SIEMEEETDDEDKQNIE [RRI2]", 3.19],
  ["VQASVTSSTHERKSKTY [RET1]", 2.97],
  ["LLPNSKNVENTKNLSIL [DSN1]", 2.83],
  ["HKISFSGTKSEVLTYVN [YJL039C/NUP192]", 2.7],
  ["RARKDRMRVSVLEKYEV [SSN3]", 1.97],
  ["RFFWKRSTNKKSKILRK [UBP6]", 1.28],
  ["ILSLIEEAAGTKMFEDR [SMC2]", 3.24],
  ["TSSQKEPFFLVTKITDM [SRB8]", 2.62],
  ["NPSITRLEEESSWQIYS [RRP4]", 2.07],
  ["RLKYALNGREVKAILMQ [RPS4A]", 1.24],
  ["MGGPKQKGITSYAVSPY [QCR8]", 1.63],
  ["DRKIQGWLGALTMANLP [ARP7]", 2.81],
  ["QEETVVEQTAEVTIEDA [RPS12]", 3.33],
  ["LDEIFSGCDSTKPSLRK [ECM29]", 2.65],
  ["QVRRDIPSAAFNFFEPI [YMR129W/POM152]", 2.15],
  ["EERSNNLLTPQPTNFTT [MCD1]", 3.12],
  ["WGTLQSVSPQMNAILTD [SMD1]", 2.91],
  ["MSTDVAAAQAQSKIDLT [SEM1]", 2.88],
  ["IDVTFTKVNNQLIKVAV [RPL9A]", 2.44],
  ["MSPFLRKVVKPSSLNSD [SRB4]", 2.34],
  ["QKQLPQKTRVKLLFDHD [ESC2]", 3],
  ["SKGSFINIAQMSACVGQ [RPO21]", 1.67],
  ["LNVPVFQIVIEPLAIAL [ARP7]", 1.25],
  ["RDYQRINKNSKIALREY [POP4]", 2.73],
  ["LTWLSSFSVCKIRCFRY [IRR1]", 1.61],
  ["THSKLFADKKRDCIDIS [PRP8]", 3.38],
  ["VSIDIEEPQLDLLDDVL [MTW1]", 3.19],
  ["EFVSYYYAHSIPSSKID [SNU114]", 1.62],
  ["LSEDVNLETLVTTKDDL [RPT2]", 2.89],
  ["MPYTINELLEMVGLASG [BRR2]", 2.52],
  ["ETDNEMNGNGKPGIPRG [SIR3]", 2.99],
  ["FHVGFIAKIKKVCECVC [RPO21]", 1.26],
  ["DKLLDPTTVSYIFCISR [SCL1]", 3.22],
  ["DFDLFKEVLPDLQNLNL [YJL039C/NUP192]", 3.4],
  ["NLTDEGYQWGEENKDIM [PRP8]", 3.2],
  ["SHAVEFFMSERSSRLHI [YML103C/NUP188]", 2.4],
  ["VHGKAPMLMANNDVFTI [SSN3]", 2.72],
  ["RTRRLKRKRRKVRARSK [RPL41A]", 3.22],
  ["TKTRKHRGHVSAGKGRI [RPL28]", 2.4],
  ["DDPSKVRLLCRSDGMGN [YLR335W/NUP2]", 2.96],
  ["FLDSVHKQGSSYVAVLG [POP7]", 2.51],
  ["TLAYDRGHRIRREFKQY [PRP8]", 2.3],
  ["NPNPSSQRAQVVTMSVK [RPC37]", 2.42],
  ["NKAQAKMDKRAKTSDSA [RPL8B]", 3.31],
  ["GTQMTLKTFHFAGVASM [RPO31]", 2.1],
  ["AFALAKEKAPTIIFIDE [RPT5]", 2.88],
  ["TYKYFEVILVDPQHKAI [RPL15A]", 2.63],
  ["AMIDAGALEEITKDHKV [FAS2]", 2.19],
  ["GLNWLISLHENKLSGIL [ISW2]", 2.31],
  ["IQISKLHYTPIEDLWQF [RPC82]", 2.36],
  ["EFEYDDEPDEQGNPKKR [CYT1]", 3.15],
  ["NEDDLTVKLTEIVWTSS [RPO31]", 3.14],
  ["KSDEAKWKPVLSHIVYF [RPN5]", 2.03],
  ["VFLLTTRAGGLGINLVT [ISW2]", 1.4],
  ["VDIKGEDLHEKNDSAEV [NUT1]", 3.55],
  ["YVGEVIKIVSDKKVLVK [RPT6]", 2.94],
  ["PSPYKTTVYRYSAAKKI [YAR002W/NUP60]", 1.67],
  ["VAGLEDKFRKACSSSGR [SIR3]", 2.9]
]}
